Exercise: for every item that follows, state its recorded IC50.
- measurement.target: KRas^G12D (Homo sapiens, UniProt P01116, G12D)
- Construct: Biotinylated KRas (corresponding to amino acids 1-169, produced at Accelegan Inc.); biotin (biotinylated); purchased Accelegan Inc
- Sequence (P01116 1-169 isoform P01116-2 G12D): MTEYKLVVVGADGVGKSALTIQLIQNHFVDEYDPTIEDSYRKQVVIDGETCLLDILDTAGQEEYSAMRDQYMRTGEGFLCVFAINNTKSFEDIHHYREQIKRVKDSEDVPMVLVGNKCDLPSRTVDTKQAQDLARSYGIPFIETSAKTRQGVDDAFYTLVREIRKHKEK
- test.details: KRas binding assay (TR-FRET tracer displacement), KRas G12D
One number for each entry, in nM.

Known results for molecules:
Query: If you can, please state the reported IC50 value of CCc1c(F)ccc2cc(O)cc(-c3ncc4c(N5CCC(N6C(=O)CCC6=O)C5)nc(OC[C@@]56CCCN5C[C@H](F)C6)nc4c3F)c12 (stereo partly shown) .
Response: 1990

Query: If you can, please state the reported IC50 value of CCc1c(F)ccc2cc(O)cc(-c3ncc4c(N5CC6CCC(C5)C65OCCO5)nc(OC[C@@]56CCCN5C[C@H](F)C6)nc4c3F)c12 .
Response: 53

Query: If you can, please state the reported IC50 value of CCc1c(F)ccc2cc(O)cc(-c3ncc4c(N5CCC(Cc6ccn(C)n6)C5)nc(OC[C@@]56CCCN5C[C@H](F)C6)nc4c3F)c12 (stereo partly shown) .
Response: 1530

Query: If you can, please state the reported IC50 value of CCc1c(F)ccc2cc(O)cc(-c3ncc4c(N5C[C@H]6CC[C@@](C(=O)NC)(C5)C6(F)F)nc(OC[C@@]56CCCN5C[C@H](F)C6)nc4c3F)c12 .
Response: 88

# batch size: 8; output IC50 per entry
1. CCc1c(F)ccc2cc(O)cc(-c3ncc4c(N5CCCC6(CCC6)C5)nc(OC[C@@]56CCCN5C[C@H](F)C6)nc4c3F)c12
2. CCc1c(F)ccc2cc(O)cc(-c3ncc4c(SCc5cc(C(=O)N(C)C)nn5C)nc(OC[C@@]56CCCN5C[C@H](F)C6)nc4c3F)c12
3. CCc1c(F)ccc2cc(O)cc(-c3ncc4c(NCc5cc(C(=O)N(C)C)n([C@H]6C[C@@H](O)C6)n5)nc(OC[C@@]56CCCN5C[C@H](F)C6)nc4c3F)c12
4. CCc1c(F)ccc2cc(O)cc(-c3ncc4c(N5CC6CCC(C(=O)N(C)C)(C6)C5)nc(OC[C@@]56CCCN5C[C@H](F)C6)nc4c3F)c12 (stereo partly shown)
5. CCc1c(F)ccc2cc(O)cc(-c3ncc4c(N5CCCC6(CCS6(=O)=O)C5)nc(OC[C@@]56CCCN5C[C@H](F)C6)nc4c3F)c12 (stereo partly shown)
6. CCc1c(F)ccc2cc(O)cc(-c3ncc4c(NS(=O)(=O)C5CCCNCC5)nc(OC[C@@]56CCCN5C[C@H](F)C6)nc4c3F)c12 (stereo partly shown)
7. CCc1c(F)ccc2cc(O)c(F)c(-c3ncc4c(N5C[C@@H]6C[C@H](C5)[C@H](O)C6)nc(OC[C@@]56CCCN5C[C@H](F)C6)nc4c3F)c12
8. CCc1c(F)ccc2cc(O)cc(-c3ncc4c(N5CC6CCC(C5)C6CC(N)=O)nc(OC[C@@]56CCCN5C[C@H](F)C6)nc4c3F)c12 (stereo partly shown)

Response:
7
123
497
11
78
2180
8
51

# batch size: 3; output IC50 per entry
1. C[C@@H]1C[C@@H]1c1c(Cl)cc(O)cc1-c1ncc2c(N3C[C@@H]4C[C@H](C3)[C@H](O)C4)nc(OC[C@@]34CCCN3C[C@H](F)C4)nc2c1F (stereo in doubt)
2. C[C@@]1(O)CCCN(c2nc(OC[C@@]34CCCN3C[C@H](F)C4)nc3c(F)c(-c4cc(O)cc5ccccc45)ncc23)C1
3. CCc1c(F)ccc2cc(O)cc(-c3ncc4c(N5C[C@@H]6[C@@H](C(N)=O)NC(=O)[C@@H]6C5)nc(OC[C@@]56CCCN5C[C@H](F)C6)nc4c3F)c12

Response:
[4, 4, 377]

---

- measurement.target: KRas^G13D (Homo sapiens, UniProt P01116, G13D)
- Construct: Biotinylated KRas (corresponding to amino acids 1-169, produced at Accelegan Inc.); biotin (biotinylated); purchased Accelegan Inc
- Sequence (P01116 1-169 isoform P01116-2 G13D): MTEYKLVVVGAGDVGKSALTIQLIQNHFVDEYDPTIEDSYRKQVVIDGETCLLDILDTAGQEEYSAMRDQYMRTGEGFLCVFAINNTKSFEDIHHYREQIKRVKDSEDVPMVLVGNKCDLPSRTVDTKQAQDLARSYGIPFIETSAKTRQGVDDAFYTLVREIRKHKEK
- test.details: KRas binding assay (TR-FRET tracer displacement), KRas G13D
- setup.conditions: TR-FRET tracer displacement, KRas G13D
observed.property: IC50

Known results for molecules:
Query: Value wanted: IC50 (KRas^G13D (Homo sapiens, UniProt P01116, G13D)) of entry O=C1NC(=O)[C@]2(CCCN(c3nc(OC[C@@]45CCCN4C[C@H](F)C5)nc4c(F)c(-c5c(C6CC6)c(Cl)cc6[nH]ncc56)ncc34)C2)N1
Response: < 2 nM

Query: Value wanted: IC50 (KRas^G13D (Homo sapiens, UniProt P01116, G13D)) of entry CCc1cccc2cc3[nH]ncc3c(-c3ncc4c(N5CCCC6(CNC(=O)N6)C5)nc(OC[C@@]56CCCN5C[C@H](F)C6)nc4c3F)c12 (some centres unmarked)
Response: < 2 nM

Query: Value wanted: IC50 (KRas^G13D (Homo sapiens, UniProt P01116, G13D)) of entry O=S1(=O)NCC2(CCCN(c3nc(OC[C@@]45CCCN4C[C@H](F)C5)nc4c(F)c(-c5c6ccccc6cc6[nH]ncc56)ncc34)C2)N1 (some centres unmarked)
Response: < 2 nM

Query: Value wanted: IC50 (KRas^G13D (Homo sapiens, UniProt P01116, G13D)) of entry O=C1NC(=O)C2CC(c3nc(OCC45CCCN4CCC5)nc4c(F)c(-c5cccc6cccc(F)c56)ncc34)=CC12 (centres unmarked)
Response: > 100000 nM

Let us move to another entry and its IC50.
Query: Value wanted: IC50 (KRas^G13D (Homo sapiens, UniProt P01116, G13D)) of entry CCc1cccc2cc3[nH]ncc3c(-c3ncc4c(N5CCCC6(C5)NC(=O)NC6=O)nc(OC[C@@]56CCCN5C[C@H](F)C6)nc4c3F)c12 (some centres unmarked)
Response: < 2 nM

---

- measurement.target: KRas^G12D (Homo sapiens, UniProt P01116, G12D)
- Construct: Biotinylated KRas (corresponding to amino acids 1-169, produced at Accelegan Inc.); biotin (biotinylated); purchased Accelegan Inc
- test.details: KRas binding assay (TR-FRET tracer displacement), KRas G12D
Exercise: for every item that follows, state its recorded IC50.

Known results for compounds:
Query: If you can, please state the reported IC50 value of CCc1c(F)ccc2cc(O)cc(-c3ncc4c(N5CCCCn6nc(C(=O)N7CCOCC7)cc6C5)nc(OC[C@@]56CCCN5C[C@H](F)C6)nc4c3F)c12 [Example 690] .
Response: < 2 nM

Query: If you can, please state the reported IC50 value of CCc1c(F)ccc2cc(O)cc(-c3ncc4c(N5C6CNC(=O)CC5COC6)nc(OC[C@@]56CCCN5C[C@H](F)C6)nc4c3F)c12 (stereo partly drawn) [Example 599] .
Response: 2120 nM

# batch size: 4; output IC50 per entry
1. C=C1CN2CCCC2(COc2nc(N3CCCC4(CC(O)C4)C3)c3cnc(-c4cc(O)cc5ccc(F)c(CC)c45)c(F)c3n2)C1 (stereo not drawn) [Example 934]
2. C[C@@H]1C[C@@H]1c1c(Cl)cc(O)cc1-c1ncc2c(N3CCCn4nc(C(=O)N(C)C)cc4C3)nc(OC[C@@]34CCCN3C[C@H](F)C4)nc2c1F [Example 933]
3. CCc1cccc2cccc(-c3ncc4c(C5CCCOCC5)nc(OCC56CCCN5CCC6)nc4c3F)c12 (racemic) [Example 723]
4. Oc1cc(-c2ncc3c(N4CCOCC5(CCO5)C4)nc(OC[C@@]45CCCN4C[C@H](F)C5)nc3c2F)c2c(Cl)c(F)ccc2c1 (stereo partly drawn) [Example 868]

Response:
["< 2 nM", "< 2 nM", "> 100000 nM", "< 2 nM"]

---

- measurement.target: KRas^G12R (Homo sapiens, UniProt P01116, G12R)
- Construct: Biotinylated KRas (corresponding to amino acids 1-169, produced at Accelegan Inc.); biotin (biotinylated); purchased Accelegan Inc
- Sequence (P01116 1-169 isoform P01116-2 G12R): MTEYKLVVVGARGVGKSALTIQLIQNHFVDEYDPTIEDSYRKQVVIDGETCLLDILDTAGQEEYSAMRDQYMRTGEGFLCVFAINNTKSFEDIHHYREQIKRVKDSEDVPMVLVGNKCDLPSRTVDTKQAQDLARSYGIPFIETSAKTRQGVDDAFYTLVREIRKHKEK
- test.details: KRas binding assay (TR-FRET tracer displacement), KRas G12R
observed.property: IC50 (nM)
Answers are plain numbers, in nM.

Known results for molecules:
Query: If you can, please state the reported IC50 value of CCc1c(F)ccc2cc(O)cc(-c3ncc4c(N5CCC[C@]6(C5)C[C@@H](O)C6)nc(OC[C@@]56CCCN5[C@H](COC(=O)N(C)C)CC6)nc4c3F)c12 .
Response: 4

Query: If you can, please state the reported IC50 value of Cc1cc2[nH]nnc2c(-c2ncc3c(N4CCC[C@@](C)(O)C4)nc(OC[C@@]45CCCN4C[C@H](F)C5)nc3c2F)c1C .
Response: 12000

Query: If you can, please state the reported IC50 value of O=C1NC(=O)C2(CCCN(c3nc(OC[C@@]45CCCN4C[C@H](F)C5)nc4c(F)c(-c5c6ccccc6cc6[nH]ncc56)ncc34)C2)N1 (stereo partly drawn) .
Response: 6

Query: If you can, please state the reported IC50 value of CCc1c(F)ccc2cc(O)cc(-c3ncc4c(N5C[C@H]6CC[C@@H](C5)[C@H]6O)nc(OC[C@@]56CCCN5C[C@H](F)C6)nc4c3F)c12 .
Response: 12

Query: If you can, please state the reported IC50 value of CCc1c(F)ccc2cc(O)cc(-c3ncc4c(N5CC(C)(O)C6CC5C6)nc(OC[C@@]56CCCN5C[C@H](F)C6)nc4c3F)c12 (stereo partly drawn) .
Response: 40

Let us move to another entry and its IC50.
Query: If you can, please state the reported IC50 value of CCc1c(F)ccc2cc(O)c(F)c(-c3ncc4c(N5C[C@@H]6C[C@H](C5)[C@H](O)C6)nc(OC[C@@]56CCCN5C[C@H](F)C6)nc4c3F)c12 .
Response: 4
